Hello, the source for this data is PubChem BioAssay, in case you need it.

- Tested on: wheat germ agglutinin (Triticum aestivum), Alexa647-labelled
- Measurement Notes: wheat germ agglutinin binders on compound microarrays, profiling panel, artefact control for SMM control-protein annotation, biochemical, small-molecule microarray, 635/667 nm fluorescence (AID 1140);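 further: score merges 667 nm feature emission with signal to noise over triplicate slides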
- Test Parameters: WGA-A647 binding, 635 nm fluorescence, higher = more signal
Overview of recorded composite z-score for various compounds
Respond numerically, and do not add a unit to the figure.

Answered examples (4):
Cc1ccc(S[C@]2(C(=O)NCCN3CCOCC3)CC(=O)N(C3Cc4ccccc4C3)[C@@H]2c2ccc(CO)cc2I)cc1 ... 1.01
COc1ccc(CCN2C(=O)[C@@]3(c4ccc([N+](=O)[O-])cc4)CC(=O)N(CC45CC6CC(CC(C6)C4)C5)[C@@H]3c3ccc(CO)cc32)cc1 ... -0.0366
COCCOC(=O)N1C(=O)[C@@]2(c3cc(C#CCC(C(=O)OC)C(=O)OC)ccc31)[C@H](C(=O)N1CCN(c3ncccn3)CC1)[C@H]1C(=O)O[C@H](c3ccccc3)[C@H](c3ccccc3)N1[C@@H]2c1ccc(O)cc1 ... 1.07
COCCOC(=O)N1C(=O)[C@@]2(c3cc(C#CCCO)ccc31)[C@H](c1ccc(O)cc1)N1[C@H](c3ccccc3)[C@H](c3ccccc3)OC(=O)[C@H]1[C@@H]2C(=O)Nc1nc2ccccc2s1 ... 0.658

Ask | Dear colleague, I am looking for the recorded composite z-score of the following compound: CCOC(=O)C[C@H]1[C@H](OC(=O)c2cc3ccccc3oc2=O)[C@@H](NC(=O)C2CCCCC2)c2cc(OCCCO)ccc2N1C(=O)c1ccc2ccccc2n1
Reply | 0.755

Ask | Entry COc1cccc([C@@H]2[C@@H](C)CC[C@H]3C(=O)N4[C@H](c5cccc(OC)c5)[C@@H](C)CC[C@H]4C(=O)N23)c1 : reported composite z-score = ?
Reply | 0.248

---

- System: Plasmodium falciparum Sir2 (PF13_0152, Sir2A)
- Measurement Notes: pfSir2 binders on small-molecule microarrays, primary screen, biochemical, small-molecule microarray, 635 nm fluorescence (AID 1098);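 further: score merges spot fluorescence intensity with its signal-to-noise ratio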
- Test Parameters: small-molecule microarray binding, fluorescence 635 nm; higher = more signal
Each record here notes measured composite z-score.
Just the number.

Here's what some known entries look like.
N#Cc1ccc(NN2C(C(O)c3ccc(I)cc3)C=CC3C(=O)N(c4ccccc4)C(=O)C32)cc1 (stereo not drawn) ... 1.13
CC[C@@H]1C=C(C(=O)O)[C@H](c2ccccc2)N1S(=O)(=O)c1ccc([N+](=O)[O-])cc1 ... 0.956
COc1cccc([C@@H]2[C@@H](C)CC[C@H]3C(=O)N(C)[C@@H](C(C)C)C(=O)N23)c1 ... 0.516
C=CCC1=C[C@H]2[C@H]([C@@H]3C=C[C@]2(CC=C)C(=O)[C@]32CO2)[C@@]2(CO2)C1=O ... 1.29
C=C[C@H](OC)[C@@H](OC(=O)Nc1ccc(SC)cc1)c1ccc(O)c(F)c1 ... 1.03
CCCCO[C@H]1C[C@H]2C(Br)=C[C@@]1(CO)C(=O)[C@]21CO1 ... -0.145

Ask | Find the recorded composite z-score belonging to C=C[C@H](OC)[C@@H](OC(=O)Nc1ccc(SC)cc1)c1ccc(OC)c(O)c1 and report it.
Reply | 0.0729

Ask | Need composite z-score, item CN1C(=O)C2C=CC(C(O)c3ccc(N(C)C)cc3)N(Nc3ccc([N+](=O)[O-])cc3[N+](=O)[O-])C2C1=O (stereo not drawn)
Reply | 1.27

---

Below, each entry is listed alongside its reported z-score.
- Measurement Notes: adipocyte viability effects, profiling panel, cell-based, 3T3-L1 adipocytes, calcein-AM fluorescence, 48 h, basal (AID 1163); further: test concentration not given here
- Test Parameters: 3T3-L1 adipocytes viability, higher = more signal

These recorded examples may help you get a feel for the data.
O=C1O[C@@H](c2ccccc2)[C@@H](c2ccccc2)N2[C@@H](c3ccc(O)cc3)[C@]3(C(=O)Nc4ccccc43)[C@@H](C(=O)N3CCN(c4ncccn4)CC3)[C@H]12 ... -0.957
CCOC(=O)C[C@H]1[C@H](OC(=O)c2cc3ccccc3oc2=O)[C@@H](NC(=O)C2CCCCC2)c2cc(OCCCO)ccc2N1C(=O)c1ccc2ccccc2n1 ... 0.536
C=C(C)[C@@H]1CC=C(C(O)C2C=CC3C(=O)NC(=O)C3N2Nc2ccccn2)CC1 (some centres not stated) ... -1.11
C=CC[C@@]1(C(=O)NCC(O)CO)N=C(c2ccc(OCCCO)cc2)O[C@@H]1c1ccccc1CN=[N+]=[N-] (some centres not stated) ... 0.0076
COCCOC(=O)N1C(=O)[C@@]2(c3ccccc31)[C@H](C(=O)N1CCc3cc(OC)c(OC)cc3C1)[C@H]1C(=O)O[C@H](c3ccccc3)[C@H](c3ccccc3)N1[C@@H]2c1ccccc1OCCO ... 1.3

Ask | Can you look up the measured z-score of CN(C)C(=O)[C@@]1(Cc2ccccc2N=[N+]=[N-])N=C(c2ccc(OCCCO)cc2)O[C@H]1c1ccccc1CN=[N+]=[N-] for me?
Reply | 1.16

Ask | Please report the recorded z-score for CCOC(=O)C1=C[C@@H](c2ccccc2)N(S(=O)(=O)c2ccc(C)cc2)[C@H]1c1ccc(F)cc1 .
Reply | -0.498

---

Quick reference for composite z-score among some compounds
- Measurement Notes: small-molecule microarray binders of probe aWnt5a, primary screen, biochemical, biotinylated probe, 635/667 nm fluorescence (AID 1113);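 further: score merges 667 nm fluorescence intensity with signal-to-noise per printed feature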
- Test Parameters: higher = more signal
Simply state the number, no unit and no words.

Field: example entries. Status: answers known.
CO[C@H]1COC(=O)[C@H](C)NC(=O)CC=C[C@@H](C)[C@H](NS(=O)(=O)c2ccc(C)cc2)COC(=O)[C@@H](OCc2ccccc2)C=C[C@@H]1C ... -0.248
CC(C)[Si]1(C(C)C)O[C@@H](c2ccccc2)c2cc(C3CC3)nc(-c3ccc(Oc4ccccc4)cc3)c21 ... -0.0758
CCC(=O)[C@]12O[C@@]3([C@@H]4C(=O)OCC[C@@H]41)N(Cc1ccccc1)C(C)=C(C(=O)OC)[C@@H](c1ccccc1)N3C2=O ... -0.16
O=[N+]([O-])c1ccc(C[n+]2ccc3ccc(O)cc3c2)o1 ... -0.0435
O=C1c2ccccc2[C@@]2(Cc3ccccc3N(CC(F)(F)F)C2=O)[C@H](c2ccc(CO)cc2)N1C1CCCCC1 ... -0.0192

Ask | Bench note: what composite z-score did COc1ccc(NN2C(C(O)c3cc(OC)c(OC)c(OC)c3)C=CC3C(=O)N(C4CCCCC4)C(=O)C32)cc1 (stereo not drawn) show?
Reply | 0.114

Ask | Look at this compound and give its reported composite z-score. CO[C@H]1COC(=O)CC=C[C@@H](C)COC(=O)[C@@H](C)NC(=O)CC=C[C@@H]1C
Reply | -0.307

Ask | Quick check: composite z-score of CCOC(=O)C[C@H]1[C@H](OC(=O)c2ccccc2-c2ccccc2)[C@@H](NC(=O)c2ccc(-c3ccccc3)cc2)c2cc(OCCCO)ccc2N1C(=O)Cc1ccc(OC)cc1 ?
Reply | -0.111

---

- Measurement Notes: osmotic lysis modulators in infected erythrocytes, primary screen, PSAC antagonist project, cell-based, P. falciparum Indochina, OD700, 3 h (AID 1156)
- Test Parameters: higher = more signal, called active from +8 up or from −8 down
Kindly return condition met if reported z-score is no lower than 0.4; return condition not met if it is lower.

Solved cases below.
C=CCc1cccc([C@@H]2[C@@H](C)CC[C@H]3C(=O)N4[C@H](c5cccc(CC=C)c5)[C@@H](C)CC[C@H]4C(=O)N23)c1 ... condition met
COCCOC(=O)N1C(=O)[C@@]2(c3cc(C#CCNC(N)=O)ccc31)[C@H](C(=O)N1CCCCCCC1)[C@H]1C(=O)O[C@H](c3ccccc3)[C@H](c3ccccc3)N1[C@@H]2c1ccccc1OCCO ... condition met
COc1ccc(CCNC(=O)[C@@]2(c3ccc([N+](=O)[O-])cc3)CC(=O)N(C(C)C)[C@@H]2c2ccc(CO)cc2)cc1 ... condition met

Continue with the next molecule.
Ask | Given CC(C)CNC(=O)[C@@]1(C)c2ccccc2C(=O)N(Cc2ccc(OC(F)(F)F)cc2)[C@H]1c1ccc(CO)cc1 , state whether its z-score is at least 0.4.
Reply | condition met

---

- Measurement Notes: mitochondrial membrane potential change in A549 cells, profiling panel, cell-based, JC-1 fluorescence, basal, 24 h, 100 nL (AID 1138);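 further: A549 lung adenocarcinoma cells under basal conditions with no added stimulus; test concentration not given here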
- Test Parameters: higher = more signal
Mark Not met for z-score values under 0.3, and Met for everything at or above.

COCCCNC(=O)[C@@]1(Sc2ccc(C)cc2)CC(=O)N(Cc2cc(C(F)(F)F)cc(C(F)(F)F)c2)[C@@H]1c1ccc(CO)cc1I ... Met
C=CCN1C(=O)[C@]2(O[C@H](CCn3cc(CCO)nn3)[C@@H]([Si](C)(C)c3ccc(OC)cc3)[C@@H]2C)c2cc(NC(=O)c3ccc(OC)cc3)ccc21 ... Met

Ask | Please indicate if the recorded z-score for CO[C@H]1COC(=O)CC=C[C@H](C)[C@@H](OC)COC(=O)CC=C[C@@H]1C meets or exceeds 0.3.
Reply | Met

Ask | Check this compound for z-score at or above 0.3: C[C@@H]1CC[C@H]2C(=O)N3CCC[C@H]3C(=O)N2[C@H]1c1ccc(Br)cc1
Reply | Met

Ask | State whether the measured z-score reaches 0.3, counting equality as reaching it, for C#C[C@H](O[Si](C#Cc1ccccc1)(C(C)C)C(C)C)c1ccccc1
Reply | Not met

Ask | Quick check, z-score >= 0.3? CC(C)[Si]1(C(C)C)OCc2cc(C3CC3)nc(-c3ccccc3)c21
Reply | Met

Ask | Answer whether z-score of CCN1C(C)=C(C(=O)OC)[C@@H](c2ccccc2)N2C(=O)[C@@]3(C(=O)OC)O[C@@]12[C@@H]1C(=O)N(c2ccccc2)C(=O)[C@@H]13 is greater than or equal to 0.3.
Reply | Met
